Biological target: T1, monomeric human TIGIT (Sino Biological 10917-H08H) (human, UniProt Q495A1 22-138, biotinylated in the MSD-SET assay)
T1 construct: Bought protein; also called Human TIGIT monomer; Human TIGIT-His; not shown: His tag
T1 sequence: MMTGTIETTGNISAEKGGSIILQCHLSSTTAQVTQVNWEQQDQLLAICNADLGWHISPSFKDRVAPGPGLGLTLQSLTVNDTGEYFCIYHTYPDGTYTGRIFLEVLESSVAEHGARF
Assay: MSD-SET solution equilibrium titration, biotinylated antigen at 50 pM
propertyMeasured: Kd

{"binder": "Clone 16C (antibody, V domains shown) VH: QVQLVQSGAEVKKPGSSVKVSCKASGGTFREYAISWVRQAPGQGLEWMGGIHPIFGTARYAQKFQGRVTITADESTSTAYMELSSLRSEDTAVYYCTRQSTWHKLYGTDVWGQGTTVTVSS VL: DIQMTQSPSSVSASVGDRVTITCRASQGISSWLAWYQQKPGKAPKLLIYAASSLQSGVPSRFSGSGSGTDFTLTISSLQPEDFATYYCQQGDSLPPTFGGGTKVEIK", "valueReported": "6.3 pM"}
{"binder": "Clone 25A (antibody, V domains shown) VH: QVQLVQSGAEVKKPGASVKVSCKASGYTFTSYAISWVRQAPGQGLEWMGWISAYNGNTKYAQKLQGRVTMTTDTSTSTAYMELRSLRSDDTAVYYCARDLSSFWSGDVLGAFDIWGQGTMVTVSS VL: DIQMTQSPSSLSASVGDRVTITCRASQSISSYLNWYQQKPGKAPKLLIYAASSLQSGVPSRFSGSGSGTDFTLTISSLQPEDFATYYCQQSVPPRTFGGGTKVEIK", "valueReported": "18 pM"}
{"binder": "Clone 2C (antibody, V domains shown) VH: EVQLVESGGGLVQPGGSLRLSCAASGFTFTDYYMDWVRQAPGKGLEWVGRTRNKVNSYYTEYAASVKGRFTISRDDSKNSLYLQMNSLKTEDTAVYYCARGQYYYGSDRRGYYYMDVWGQGTTVTVSS VL: EIVLTQSPGTLSLSPGERATLSCRASQSVSSSYLAWYQQKPGQAPRLLIYGASSRATGIPDRFSGSGSGTDFTLTISRLEPEDFAVYYCQQAVPSPLTFGGGTKVEIK", "valueReported": "16 pM"}
